Provenance of the data: patent US20190233494A1

Molecular target: T1, RXFP1 receptor (endogenous, on OVCAR5 cells) (UniProt Q9HBX9 1-757, limits assumed)
T1 sequence (looked up): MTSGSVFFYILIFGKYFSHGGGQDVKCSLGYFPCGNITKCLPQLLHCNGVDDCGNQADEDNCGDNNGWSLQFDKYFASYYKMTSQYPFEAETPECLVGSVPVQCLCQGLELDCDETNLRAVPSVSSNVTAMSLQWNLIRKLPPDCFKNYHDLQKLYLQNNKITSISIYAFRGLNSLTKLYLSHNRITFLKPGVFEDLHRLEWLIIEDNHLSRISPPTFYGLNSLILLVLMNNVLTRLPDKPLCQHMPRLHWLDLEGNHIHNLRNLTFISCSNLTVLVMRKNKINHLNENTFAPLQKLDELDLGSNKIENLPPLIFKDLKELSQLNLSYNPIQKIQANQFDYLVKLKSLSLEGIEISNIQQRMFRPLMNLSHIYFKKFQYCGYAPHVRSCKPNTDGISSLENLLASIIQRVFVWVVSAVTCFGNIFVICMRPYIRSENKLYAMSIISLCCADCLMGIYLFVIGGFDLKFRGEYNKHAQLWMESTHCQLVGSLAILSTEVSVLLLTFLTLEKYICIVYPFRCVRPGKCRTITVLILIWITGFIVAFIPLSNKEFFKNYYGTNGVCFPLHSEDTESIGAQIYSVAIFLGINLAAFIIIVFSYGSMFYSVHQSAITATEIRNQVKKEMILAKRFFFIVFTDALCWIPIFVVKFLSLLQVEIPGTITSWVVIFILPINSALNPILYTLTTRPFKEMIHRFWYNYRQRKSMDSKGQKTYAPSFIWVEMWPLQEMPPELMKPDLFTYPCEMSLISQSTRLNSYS
Assay: cell-based or functional assay
Starred links: 1 amine or outer side, 2 acyl side, 3 side chain; linkers in the order of their positions; H or OH if unused. Non-standard residues stand in square brackets, D forms with d. Groups on a side chain read outwards from the residue. *: point of attachment. TTDS = 4-[3-[2-[2-(3-aminopropoxy)ethoxy]ethoxy]propylamino]-4-oxo-butanoyl; γGlu = O=C(O)[C@H](CCC(=O)[*:2])N[*:1]; Stearoyl = CCCCCCCCCCCCCCCCCC(=O)*; Palmitoyl = CCCCCCCCCCCCCCCC(=O)*; Cit = NC(=O)NCCC[C@H](N)C(=O)O; αMeK = C[C@](N)(CCCCN)C(=O)O; Aib = CC(C)(N)C(=O)O
measured.quantity: EMax, OVCAR 5 cells (cAMP) (%)

>  <binder>
Ac-LEGREKVRAK(Ac)I[Aib][Aib]EGK([TTDS-TTDS-TTDS-γGlu-γGlu-γGlu-Palmitoyl])STFS[αMeK]RAK-NH2 [peptide of SEQ ID NO: 49]

>  <EMax, OVCAR 5 cells (cAMP) (%)>
97

$$$$
>  <binder>
Ac-LEGREKVRAK(Ac)I[Aib][Aib]EGK([TTDS-TTDS-TTDS-γGlu-γGlu-γGlu-Palmitoyl])STW[Dser]KRAK(Ac)-NH2 [peptide of SEQ ID NO: 44]

>  <EMax, OVCAR 5 cells (cAMP) (%)>
97

$$$$
>  <binder>
Ac-LEGREKVRAK(Ac)I[Aib][Aib]EGK([TTDS-TTDS-TTDS-γGlu-γGlu-γGlu-Palmitoyl])STFS[Dlys]RAK(Ac)-NH2 [peptide of SEQ ID NO: 36]

>  <EMax, OVCAR 5 cells (cAMP) (%)>
93

$$$$
>  <binder>
Ac-LEGREKVRAK(Ac)I[Aib][Aib]EGK([TTDS-TTDS-γGlu-γGlu-γGlu-Palmitoyl])STWS[dK]RKK(Ac)-NH2 [peptide of SEQ ID NO: 18]

>  <EMax, OVCAR 5 cells (cAMP) (%)>
92

$$$$
>  <binder>
Ac-LEGREKVRAK(Ac)I[Aib][Aib]EGK([TTDS-TTDS-TTDS-γGlu-γGlu-γGlu-Palmitoyl])STWS[Aib]RK(Ac)K-NH2 [peptide of SEQ ID NO: 68]

>  <EMax, OVCAR 5 cells (cAMP) (%)>
98

$$$$
>  <binder>
Ac-LEGREKVRAK(Ac)I[Aib][Aib]EGK([TTDS-TTDS-TTDS-γGlu-γGlu-γGlu-Palmitoyl])SRWS[Aib]RKK(Ac)-NH2 [peptide of SEQ ID NO: 64]

>  <EMax, OVCAR 5 cells (cAMP) (%)>
95

$$$$
>  <binder>
Ac-LEGREKVRAK(Ac)I[Aib][Aib]EGK([TTDS-TTDS-γGlu-γGlu-Palmitoyl])STFS[αMeK]RAK(Ac)-NH2 [peptide of SEQ ID NO: 9]

>  <EMax, OVCAR 5 cells (cAMP) (%)>
93

$$$$
>  <binder>
Ac-LEGREKVRA[Cit]I[Aib][Aib]EGK([TTDS-TTDS-TTDS-γGlu-γGlu-γGlu-Stearoyl])STFS[αMeK]RAK(Ac)-NH2 [peptide of SEQ ID NO: 56]

>  <EMax, OVCAR 5 cells (cAMP) (%)>
91

$$$$
>  <binder>
Ac-LEGREKVRAK(Ac)I[Aib][Aib]EGK([TTDS-TTDS-TTDS-γGlu-γGlu-γGlu-Palmitoyl])STFS[Aib]RAK(Ac)-NH2 [peptide of SEQ ID NO: 2]

>  <EMax, OVCAR 5 cells (cAMP) (%)>
99

$$$$
